biological target: GLP-1 receptor (UniProt P43220 24-463, limits assumed); experiment: cell-based or functional assay
*1 amine or outer side, *2 acyl side, *3 side chain or, on linkers, in order; H or OH if unused. Where no end group is shown, it is not given here. Side-chain parts run from the residue outwards. [ ]: non-standard residue; d: D form. The star is where a group is joined. γGlu = O=C(O)[C@H](CCC(=O)[*:2])N[*:1]; Palmitoyl = CCCCCCCCCCCCCCCC(=O)*; Aib = CC(C)(N)C(=O)O
readout-type: EC50 (cAMP reporter) (pM)
Give the number; pM is assumed, so skip it.

binder	EC50 (cAMP reporter) [pM]
H[Aib]QGTFTSDYSKYLDERAAQDFVQWLLDGGPSSGAPPPSY(Palmitoyl)G-NH2 (also: Y40 O-2palmitic acid, exact structure not given here) [peptide of SEQ ID NO: 212]	4
H[Aib]QGTFTSDYSKYLDERAAQDFVQWLLDAGPSSGAPPPSK([γGlu-γGlu-Palmitoyl])G-NH2 [peptide of SEQ ID NO: 204]	1
H[Aib]QGTFTSDK([γGlu-Palmitoyl])SKYLDERAAQDFVQWLLDGGPSSGAPPPS-NH2 [Analog No. 30: Aib2, K10acyl, E16, A18, L27, D28, G29 + CEX (SEQ ID NO: 28)]	4
H[Aib]QGTFTSDYSKYLDERAAQDFVQWLLAGGPSSGAPPPSK([γGlu-γGlu-Palmitoyl])G-NH2 [peptide of SEQ ID NO: 203]	1

In the following, a different binder is considered.
# lookup: EC50 (cAMP reporter) of H[Aib]QGTFTSDYSKYLDERAAQDFVQWLLDGGPSSGAPPPSK([γGlu-γGlu-Palmitoyl])G-NH2 (not fully specified) [peptide of SEQ ID NO: 89] 5
